EXPERIMENTAL_TARGET: Sphingosine-1-phosphate receptor 1 (S1P1) (Mus musculus)
Construct: gene S1pr1; mouse S1pr1 coding region with C terminus linked to C-terminal firefly luciferase fragment (amino acids #394–550), S1P1–CLuc; with NLuc–β-arrestin2
METHOD_SUMMARY: split luciferase β-arrestin2 recruitment (bioluminescence) in knock-in mouse embryonic fibroblasts
Assay type: cell-based
COND: read-out: EC50

MOLECULE_SMILES: CCCCCCCCCCCCC/C=C/[C@@H](O)[C@@H](N)COP(=O)(O)O
RESULT_UNITS: nM
EC50: 19.4

----------
EXPERIMENTAL_TARGET: Sphingosine-1-phosphate receptor 1 (S1P1) (Mus musculus, UniProt O08530)
Construct: gene S1pr1; mouse S1pr1 coding region with C terminus linked to C-terminal firefly luciferase fragment (amino acids #394–550), S1P1–CLuc; with NLuc–β-arrestin2
Sequence (O08530 2-382): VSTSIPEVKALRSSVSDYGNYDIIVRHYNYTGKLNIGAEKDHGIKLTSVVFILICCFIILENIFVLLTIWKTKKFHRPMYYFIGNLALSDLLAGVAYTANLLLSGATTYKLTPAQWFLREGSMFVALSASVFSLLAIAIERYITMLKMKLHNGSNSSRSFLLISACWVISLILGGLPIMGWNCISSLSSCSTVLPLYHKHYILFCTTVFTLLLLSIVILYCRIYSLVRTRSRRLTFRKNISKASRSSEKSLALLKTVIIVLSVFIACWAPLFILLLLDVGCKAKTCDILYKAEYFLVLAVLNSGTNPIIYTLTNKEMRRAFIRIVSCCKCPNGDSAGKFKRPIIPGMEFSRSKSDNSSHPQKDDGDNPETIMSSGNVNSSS
Sequence (Q91YI4 whole entry partner, the tested form may be a part): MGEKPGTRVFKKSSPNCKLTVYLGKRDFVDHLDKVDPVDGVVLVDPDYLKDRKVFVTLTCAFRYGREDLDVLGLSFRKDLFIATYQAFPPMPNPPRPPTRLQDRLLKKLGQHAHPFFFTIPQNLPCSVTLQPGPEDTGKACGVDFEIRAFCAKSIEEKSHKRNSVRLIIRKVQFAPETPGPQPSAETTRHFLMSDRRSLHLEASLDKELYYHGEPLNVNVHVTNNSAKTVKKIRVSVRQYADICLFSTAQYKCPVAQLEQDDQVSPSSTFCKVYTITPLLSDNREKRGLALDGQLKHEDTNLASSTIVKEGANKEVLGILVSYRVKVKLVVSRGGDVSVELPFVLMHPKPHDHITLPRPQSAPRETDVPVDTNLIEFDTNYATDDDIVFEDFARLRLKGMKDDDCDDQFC
METHOD_SUMMARY: split luciferase β-arrestin2 recruitment (bioluminescence) in knock-in mouse embryonic fibroblasts
Format: cell-based
pEC50: −log10 of the molar value.

COMPOUND: CCCCCCCCCCCCCCC[C@@H](O)[C@@H](N)COP(=O)(O)O [dihydro-S1P]
EXPERIMENTAL_TARGET: Sphingosine-1-phosphate receptor 1 (S1P1) (Mus musculus, UniProt O08530)
pEC50: 7.49
